assay: NCI Yeast Anticancer Drug Screen. Data for the mec2-1 strain (AID 157); conditions: S. cerevisiae mec2-1 strain, at 50.0 µM, stronger effect = higher value
Compounds without any hit were thinned out: in the full panel of roughly 79,000, 15% have a hit.
Use Y when the recorded growth inhibition is no lower than 10%; use N when it is lower.

> print(dat)
                                   compound  group.label
1  Cc1cc(N(CCC#N)CCC#N)ccc1/C=C(\NC(=O)/C=C/c1ccccc1)C(=O)Nc1ccccc1Cl            Y
2                     NC(N)=NC(N)=Nc1cnccn1            N
3  Cc1ccc(S(=O)(=O)OC2CC(C(C)(C)C)CCC2c2ccccc2)cc1 (stereo not given)            N
4  CC(NC(=O)CNC(=O)CNC(=O)OCc1ccccc1)C(=O)OCc1ccccc1 (stereo not given)            N
5  O=c1ccc2c(-c3ccccc3S(=O)(=O)O)c3ccc(O)c(O)c3oc-2c1O            Y

Every entry's value here was drawn from PubChem BioAssay (NCI).
